# aptazyme ON/OFF ratio per entry
B1: Pistol ribozyme (parent)
chain: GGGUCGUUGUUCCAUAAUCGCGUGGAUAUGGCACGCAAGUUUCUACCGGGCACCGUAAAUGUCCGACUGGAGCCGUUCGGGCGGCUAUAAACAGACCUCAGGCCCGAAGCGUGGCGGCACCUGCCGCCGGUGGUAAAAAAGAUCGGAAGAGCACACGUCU

Variants of: B1
Experiment: aptazyme ON/OFF ratio, guanine; higher = stronger switching; co-transcriptional cleavage with and without guanine
Returns: the value as a bare number; no unit string appended.

U7A U8G G9A U10A C12G C13G : 1.33
U11A C12A C13G : 1.53
U7A U8G U10G U11C : 1.39
U7A U8A G9A U10C U11C C12A C13G : 1.04
U7A U8G G9C U11A C12G C13U : 1.28
U8A U10A U11G C12A : 1.12

--- query ---
Form field aptazyme ON/OFF ratio, entry U7A G9U U11C C12G C13A : 1.11
